- Organism: Rattus norvegicus
- experiment-description: Open TG-GATES - Regimen: Daily Repeat
- Assay type: toxicity, organism-based, Sprague-Dawley
- Set-up: regimen Daily Repeat, gender Male, age 6 weeks
- details: in vivo, po, 0 mg/kg, […], tissue Plasma, route gavage, dose level Control, time 7 day
The entries below are paired with their reported TP.
Quick reminder: number only, in g/dL, skip the unit.

Look over these answered cases.
>  <molecule>
Cc1cccc(Nc2ccccc2C(=O)O)c1C

>  <assay-readout>
TP

>  <units-label>
g/dL

>  <readout-number>
5.6

$$$$
>  <molecule>
CCOC(=O)[C@H](CCc1ccccc1)N[C@@H](C)C(=O)N1CCC[C@H]1C(=O)O

>  <assay-readout>
TP

>  <units-label>
g/dL

>  <readout-number>
5.9

$$$$
>  <molecule>
Clc1c(Cl)c(Cl)c(Cl)c(Cl)c1Cl

>  <assay-readout>
TP

>  <units-label>
g/dL

>  <readout-number>
5.9

$$$$
>  <molecule>
CC(CN1c2ccccc2Sc2ccccc21)N(C)C (centres undefined)

>  <assay-readout>
TP

>  <units-label>
g/dL

>  <readout-number>
5.4

$$$$
>  <molecule>
CN1C(C(=O)Nc2ccccn2)=C(O)c2sc(Cl)cc2S1(=O)=O

>  <assay-readout>
TP

>  <units-label>
g/dL

>  <readout-number>
5.7

$$$$
>  <molecule>
CC(=O)Nc1nnc(S(N)(=O)=O)s1 [ACETAZOLAMIDE]

>  <assay-readout>
TP

>  <units-label>
g/dL

>  <readout-number>
5.3

$$$$

// TP lookup, molecule = CN(C)[C@@H]1C(O)=C(C(N)=O)C(=O)[C@@]2(O)C(O)=C3C(=O)c4c(O)cccc4[C@@](C)(O)[C@H]3C[C@@H]12 , result: 5.7

// TP lookup, molecule = C1CCC(C(CC2CCCCN2)C2CCCCC2)CC1 (centres undefined) , result: 5.8

// TP lookup, molecule = C#C[C@]1(O)CC[C@H]2[C@@H]3CCC4=Cc5oncc5C[C@]4(C)[C@H]3CC[C@@]21C , result: 5.5

---

The entries below are paired with their reported Lym.
- Species on record: Rattus norvegicus
- experiment-description: Open TG-GATES - Regimen: Daily Repeat
- Type: toxicity, organism-based, Sprague-Dawley
- Design: regimen Daily Repeat, gender Male, age 6 weeks
- details: in vivo, po, 0 mg/kg, […], tissue Blood, route gavage, dose level Control, time 28 day
Quick reminder: number only, in %, skip the unit.

Look over these answered cases.
>  <molecule>
CCOC(=O)[C@H](CCc1ccccc1)N[C@@H](C)C(=O)N1CCC[C@H]1C(=O)O

>  <Lym [%]>
80

$$$$
>  <molecule>
CC(CN1c2ccccc2Sc2ccccc21)N(C)C (stereo not given)

>  <Lym [%]>
80.2

$$$$
>  <molecule>
CN1C(C(=O)Nc2ccccn2)=C(O)c2sc(Cl)cc2S1(=O)=O

>  <Lym [%]>
81.6

$$$$
>  <molecule>
O=C(O)Cc1ccccc1Nc1c(Cl)cccc1Cl

>  <Lym [%]>
84.2

$$$$

// Lym lookup, molecule = Clc1c(Cl)c(Cl)c(Cl)c(Cl)c1Cl , result: 83.4

---

- Species on record: Rattus norvegicus
- experiment-description: Open TG-GATES - Regimen: Single
- Format: toxicity, organism-based, Sprague-Dawley
- Parameters: regimen Single, gender Male, age 6 weeks
- details: in vivo, po, 0 mg/kg, 3 h, tissue Plasma, route gavage, dose level Control
assay-readout: ALP (IU/L)
Quick reminder: number only, in IU/L, skip the unit.

>  <compound>
CC(CN1c2ccccc2Sc2ccccc21)N(C)C (stereo not given) [PROMETHAZINE]

>  <ALP, IU/L>
1819.4

$$$$
>  <compound>
CN(C)[C@@H]1C(O)=C(C(N)=O)C(=O)[C@@]2(O)C(O)=C3C(=O)c4c(O)cccc4[C@@](C)(O)[C@H]3C[C@@H]12 [TETRACYCLINE]

>  <ALP, IU/L>
813

$$$$
>  <compound>
CN1C(C(=O)Nc2ccccn2)=C(O)c2sc(Cl)cc2S1(=O)=O [LORNOXICAM]

>  <ALP, IU/L>
1010.4

$$$$
>  <compound>
C1CCC(C(CC2CCCCN2)C2CCCCC2)CC1 (stereo not given) [PERHEXILINE]

>  <ALP, IU/L>
1964.4

$$$$
>  <compound>
CC(=O)Nc1nnc(S(N)(=O)=O)s1 [ACETAZOLAMIDE]

>  <ALP, IU/L>
1586.4

$$$$

// ALP lookup, compound = C#C[C@]1(O)CC[C@H]2[C@@H]3CCC4=Cc5oncc5C[C@]4(C)[C@H]3CC[C@@]21C [DANAZOL] , result: 1527.4

// ALP lookup, compound = COc1cc([C@@H]2c3cc4c(cc3[C@@H](O[C@@H]3O[C@@H]5CO[C@@H](C)O[C@H]5[C@H](O)[C@H]3O)[C@H]3COC(=O)[C@H]23)OCO4)cc(OC)c1O [ETOPOSIDE] , result: 857.8

// ALP lookup, compound = CCOC(=O)[C@H](CCc1ccccc1)N[C@@H](C)C(=O)N1CCC[C@H]1C(=O)O , result: 725.4

// ALP lookup, compound = Cc1cccc(Nc2ccccc2C(=O)O)c1C [MEFENAMIC ACID] , result: 1061

// ALP lookup, compound = Clc1c(Cl)c(Cl)c(Cl)c(Cl)c1Cl [PERCHLOROBENZENE] , result: 1008.2
